Experiment: Solubility measurement (DMSO solution method), McIlvaine buffer pH 4.5 or 6.8
Type: physicochemical
Conditions: aqueous buffer, kinetic from dmso stock; McIlvaine buffer pH 4.5; DMSO stock diluted to 250 μM; 24 h shaking at ambient temperature; read-out: solubility pH 4.5
# Lookup of reported solubility at 24 h keyed by entry

> print(dat)
                                   compound     recorded.metric  measured.value
1  C[C@H](Oc1cc(N2CCNC3(CCC3)C2)nc(-c2noc3c2CCC[C@@]32CCCc3sc(N)c(C#N)c32)n1)[C@@H]1CCCN1C [II-40]  solubility at 24 h     > 140 µg/mL
2  C[C@H](Oc1cc(-c2ccn3ncnc3c2)nc(-c2onc3c2CCC[C@@]32CCCc3sc(N)c(C#N)c32)n1)[C@@H]1CCCN1C [I-33]  solubility at 24 h         8 µg/mL
3  C[C@H](Oc1cc(-c2ccn(C3CC3)n2)nc(-c2noc3c2CCC[C@@]32CCCc3sc(N)c(C#N)c32)n1)[C@@H]1CCCN1C [II-98]  solubility at 24 h        83 µg/mL
4  C[C@H](Oc1cc(-n2ccc(-c3cn([C@H]4CCOC4)nn3)n2)nc(-c2noc3c2CCC[C@@]32CCCc3sc(N)c(C#N)c32)n1)[C@@H]1CCCN1C [II-212]  solubility at 24 h        16 µg/mL

I would be grateful if you could share the reported solubility at 24 h for C[C@H]1CN(C)CCCN1c1cc(N2CC[C@H](N(C)C)C2)nc(-c2noc3c2CCC[C@@]32CCCc3sc(N)c(C#N)c32)n1 [II-16] .
> 147 µg/mL

Entry source: patent US20240174690A1
